Origin of the recorded values: patent US20160200799A1

Molecular target: Influenza virus A/Panama/2007/1999 (H3N2) (Influenza A virus A/Panama/2007/1999 (H3N2))
Test: cell-based or functional assay

Binder: Group 55 representative clone F083-305, Fab-PP-type antibody (Fab, V domains shown) VH: EVQLVESGAEVKKPGSSVKVSCKASGSIFSNYAISWVRQAPGQGLEWMGGIVPMFGTTRFAQKFQGRVTITADESRSTAYMELNNLISEDTAVYYCARAPLIYNWYFDLWGRGTLVTVSS VL: EIVLTQSPSFVSASVGDRVSITCRASQGISSWLAWYQQKPGKAPRLLIYGASNLQSGVPSRFSGSGSGTDYTLTINSLQPEDFATYYCQQARTFPVTFGQGTKLEIK
Unit string: %
Neutralizing activity (%) at 100 µg/ml: -17.1
//
Binder: Group 63 representative clone F083-336, Fab-PP-type antibody (Fab, V domains shown) VH: QVQLQQSGAEVKQPGSSVKVSCKASGGIFRSNAISWVRQAPGQGLEWMGGIVALFGTANYAQKFQGRVTITADESTSTVYMELSSLRSEDTARYYCARNSGYHISGFYLDYWGQGTLVTVSS VL: EIVLTQSPSSLSASVGDRVTITCRASQGISNYLAWYQQRPGKVPKLLIYTASTLLSGVPSRFSGGGSGTDYTLTISSLQPEDVATYYCQEYKSVPLTFGPGTKVEIK
Unit string: %
Neutralizing activity (%) at 100 µg/ml: -11
//
Binder: Group 59 representative clone F083-351, Fab-PP-type antibody (Fab, V domains shown) VH: QVQLVQSGADVKKAGSSVKVSCKASGRTFGNYAISWVRQAPGQGLEWMGGITPIFGAANYAQKFQGRVTISADLSTRMVYMDLSSLRSDDTAFYYCAGHPMYHYGSAMDYWGQGTLVTVSS VL: QSVLTQPPSASGTPGQRVSISCFGSRSNVGSSSVNWYQQLPGRAPKLLIQRNDQRPSGVPDRFSGSKSGTSASLAISGLQSDDESTYYCAAWDDSVKSVVFGGGTQLTVLG
Unit string: %
Neutralizing activity (%) at 100 µg/ml: -6.8
//
Binder: Group 57 representative clone F083-103, Fab-PP-type antibody (Fab, V domains shown) VH: QVQLQQSGADVKKAGSSVKVSCKASGRTFGNYAISWVRQAPGQGLEWMGGITPIFGAANYAQKFQGRVTISADLSTRMVYMDLSSLRSDDTAFYYCAGHPTYHYGSAMDYWGQGTLVTVSS VL: QSVLTQPPSVSAAPGQKVTITCSGSSSNIGNNYVSWYQQLPGTAPKLLISEGSNRPSGIPDRFSGSKSGTSATLGITGLQTGDEATYYCATWDDSLSVVLFGGGTRLTVLS
Unit string: %
Neutralizing activity (%) at 100 µg/ml: 11
//
Binder: Group 35 representative clone F082-117, Fab-PP-type antibody (Fab, V domains shown) VH: QVQLVQSGSEVKKPGSSVKVSCKSSGGILRRSAISWVRQAPGQGLEWMGGILAIFGTTKYAQKFQGRITITADESTNTVHMELSSLRPDDTAVYYCAGGPHYYVSYFDSWGQGTLVTVSS VL: DIQMTQSPATLSLSPGERATLSCRASQSVRSYLAWYQQKPGQAPRLLIYDASNRATGIPARFSGSGSGTEFTLTISRLEPEDFAVYYCQQRSNWLFTFGPGTKVDFK
Unit string: %
Neutralizing activity (%) at 100 µg/ml: 3.4
//
Binder: Group 38 representative clone F082-338, Fab-PP-type antibody (Fab, V domains shown) VH: QVQLQESGAEVKKPGSSVKVSCKASGGPFRSHAISWVRQAAGQGLEWMGGITAVFGTANYAQKFQGRVTITADESTNIVSMELSSLRSEDTAIYYCARSLGYHTQYNGMDVWGQGTTVTVSS VL: DVVMTQSPSSVSASVGDRVTITCRASQGISSWLAWYQQKPGKAPKLLIYAASSLQSGVPSRFSGSGSGTDFTLTISSLQPEDFATYYCQQANSFPITFGQGTRLEIK
Unit string: %
Neutralizing activity (%) at 100 µg/ml: -2.7
